B1: CROP (parent)
chain: VFGRGDNISDVSKFLEDDKWMEE

variants of: B1; assay: protein stability index of a GFP-peptide fusion (GPS, HEK-293T) (PSI 1-6); higher = more stable; conditions: c terminus: native;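 further: lentivirally expressed fusions sorted by FACS into six bins by GFP to DsRed ratio, PSI derived from sequencing read proportions per bin multiplied by bin number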

| VARIANT_STRING | protein stability index |
| --- | --- |
| K13M | 2.69 |
| E23L | 3.54 |
| V1L | 2.48 |
| V11T | 1.49 |
| S9A | 2.31 |
| V11W | 2.43 |
| L15R | 2.91 |
| I8R | 2.92 |
| D18G | 2.06 |
| E22F | 3.47 |
| D17T | 2.04 |
